# Test system: EAE mice
# METHOD_SUMMARY: EAE in 129Sv WT mice immunized with MOG35-55/CFA, clinical scoring
# Assay type: in vivo, mouse
# RUN_CONDITIONS: peptide every other day from peak of disease (10 μg, or 1 μg equimolar to 10 μg protein)
ENDPOINT: therapeutic efficacy of peptide in EAE (clinical scores)

Please review the entries below; each comes with its answer.
* LTITSSLSSDGVLTV (listed as Homo sapiens) [HSPB5 peptide 131-145] | therapeutic
* DKFVIFLDVKHFSPEDLTVK [HSPB4 73-92] | therapeutic in EAE
* RRPFFPFHSPSRLFD (listed as Homo sapiens) [HSPB5 peptide 11-25] | therapeutic
* ITREEKPAVTAAPKK (listed as Homo sapiens) [HSPB5 peptide 161-175] | therapeutic

Okay, now this sequence:
query: Which measured therapeutic efficacy of peptide in EAE (clinical scores) value corresponds to DRWRVSLDVNHFAPDELTVK [HSPB1 73-92] ?
result: therapeutic in EAE
